Test system: HOP-62 NSCLC
Test: NCI-60 one-dose screen, 48 h
Conditions: 10 µM unless noted
Compounds without any hit were thinned out: in the full panel of roughly 83,000, 20% have a hit. The source made the active and inactive calls. How the source made its calls: active means growth percent below 10; inactive means the rest.
Pick one and only one: true (1) = active, false (0) = inactive

**Q:** Per the records of this test, what outcome belongs to O=C(CSc1nc(-c2ccccc2)[nH]c1S(=O)(=O)c1ccccc1)NC1CC1 ?
**A:** false (0)

**Q:** For this compound, state the assay outcome: CC1(C)c2[nH]c3ccccc3c2C[C@]2(C)[C@H]3CC=C4[C@@H]5C[C@@](C)(C(N)=O)CC[C@]5(C)CC[C@@]4(C)[C@]3(C)CC[C@@H]12
**A:** false (0)

**Q:** Hello, I am checking results. What call was entered for C=C(C)[C@@H]1CC[C@]2(C(=O)NCC#CCN3CCN(C)CC3)CC[C@]3(C)[C@H](CC[C@@H]4[C@@](C)(CCC#N)[C@H](C(=C)C)CC[C@]43C)[C@@H]12 ?
**A:** false (0)

**Q:** Which outcome did this test record for the compound COc1cc(/C=C\c2cc(/C=C\c3ccc(O)c(OC)c3)n(C(=O)COc3ccc(Cl)cc3Cl)n2)ccc1O ?
**A:** false (0)

**Q:** Hi, sorry to bother you, what did the test record for COc1cc(CNS(=O)(=O)c2ccc(C)cc2)ccc1OCc1cn(-c2ccc(Br)cc2)nn1 ?
**A:** false (0)

**Q:** Which outcome was entered for the compound Cc1ccccc1NC(=O)c1sc2nc(C)c(C(=O)/C=C/c3ccccc3)cc2c1N in this test?
**A:** true (1)

**Q:** Record request — test call for COc1ccc(NC(=O)c2sc3nc(C)c(C(=O)/C=C/c4cccc(OC)c4)cc3c2N)cc1
**A:** false (0)

**Q:** Assay result, entry CN1CCN(Cc2ccc3c(NNC(=O)c4ccccc4)nc4cc(F)ccc4n23)CC1 — outcome?
**A:** false (0)

###

System: UO-31 renal
Experiment: NCI-60 one-dose screen, 48 h
Settings: 10 µM unless noted
This is part of a sample that, as a whole, favours compounds with a hit. Of some 83,000 tested, about 20% had one in any assay. Activity calls are given as the source filed them. Rule for the calls: active = growth percent below 10; inactive = the rest.
Hi! Could you answer with just one of these? 1 (yes) for active, 0 (no) for inactive

**Q:** Please share the test call associated with C=CCc1c(O)c(C(=O)/C=C/c2ccc(Cl)cc2)c(OC)c2ccoc12 .
**A:** 0 (no)

**Q:** Field: outcome | Entry: CC(=O)Nc1nc2ccc(NS(=O)(=O)c3cccc4c(N(C)C)cccc34)cc2[nH]1
**A:** 0 (no)

**Q:** What outcome does the record of this test show for CCSc1nc(NC)c2cc(-c3ccc(C(F)(F)F)cc3)ccc2n1 ?
**A:** 0 (no)

**Q:** Fill in: this test's call for Nc1nc2c([nH]1)c1[nH]c3ccccc3c1c1[nH]c3ccccc3c21 is ___
**A:** 0 (no)

**Q:** Give the logged outcome of this assay for the following compound: COc1cc(OC)c2sc(-c3ccc(-n4cncc4-c4ccc(OC)c(OC)c4)cc3)nc2c1
**A:** 0 (no)

**Q:** Hello, I am checking results. What call was entered for CC1Cc2c(Cl)ncnc2N(C)c2ccc(F)cc21 (stereo not given) ?
**A:** 0 (no)

**Q:** Which result was noted for this compound in the test: Oc1c(Cl)cc(Cl)c2ccc(Cn3cc(-c4ccc(C(F)(F)F)cc4)nn3)nc12
**A:** 0 (no)

**Q:** # fetch the recorded call for C#Cc1ccc(NC(=O)c2ccc(/C=C/C(=O)c3nccn3C)cc2)cc1 here
**A:** 1 (yes)

**Q:** Tell me the assay call for COc1ccc(C(=O)Nc2ncc(Cc3cccc(Cl)c3)s2)cc1OC please.
**A:** 0 (no)

**Q:** Please state the recorded outcome for this compound: N#Cc1nc(-c2ccccc2)oc1S(=O)(=O)N1CCOCC1
**A:** 0 (no)

**Q:** For this compound, state the assay outcome: O=C(/C=C/c1ccccc1)c1cccc(OCCCOc2cccc(C(=O)/C=C/c3ccccc3)c2)c1
**A:** 0 (no)

**Q:** Hello, I am checking results. What call was entered for CCCCCCCCn1ccc2cc(NC(=O)Cn3cc(CN4CCCCC4)nn3)ccc21 ?
**A:** 1 (yes)

**Q:** For this compound, state the assay outcome: COc1cccc(CNc2ncnc3c2ncn3C2OC(CO)C(O)C2O)c1O (stereo not given)
**A:** 1 (yes)

**Q:** // outcome(item) with item = C[C@]12C=CC(=O)C=C1CCC1C2[C@@H](O)C[C@@]2(C)C1CC[C@]2(O)C(=O)COC(=O)CCC(=O)O (stereo not given in full)
**A:** 0 (no)

**Q:** Look up the recorded call for O=C(CCCCC1CCSS1)Nc1ncnc2n[nH]c(-c3ccc(Oc4ccccc4)cc3)c12 (stereo not given) in this test.
**A:** 0 (no)

**Q:** Just curious, what result did CC1=C(C(=O)OC(C)C)C(c2ccc3c(c2)OCO3)NC(=S)N1 (stereo not given) get here?
**A:** 0 (no)

**Q:** Could you please tell me the result logged for O=C1/C(=C/c2ccc(Cl)cc2)COc2ccc(O)c(O)c21 in this assay?
**A:** 1 (yes)

**Q:** What classification did COc1ccc(C(=O)C2C(c3ccc(OC)cc3)CN(C)C23C(=O)Nc2ccccc23)cc1 (stereo not given) end up with in this test?
**A:** 0 (no)

**Q:** Would you mind telling me which call this test gave CN(C)CC(=O)Nc1ccc2ncnc(Nc3ccc(Oc4cccc(C(F)(F)F)c4)c(Cl)c3)c2c1 ?
**A:** 1 (yes)

**Q:** Short answer needed: outcome of this test for O=C(CSc1nc2sc3c(c2c(=O)n1-c1ccccc1)CCCCC3)N/N=C/c1ccc(F)cc1 ?
**A:** 0 (no)

###

System: A549/ATCC NSCLC
Test: NCI-60 one-dose screen, 48 h
Conditions: 10 µM unless noted
Compounds without any hit were thinned out: in the full panel of roughly 83,000, 20% have a hit. Activity calls are given as the source filed them. The calls were made as follows: active = growth percent below 10; inactive = the rest.
Tick one outcome: active, inactive

**Q:** Returns: the outcome recorded for S=C(Nc1ccc(-c2nc(N3CCOCC3)c3cccn3n2)cc1)Nc1cccnc1 in this assay.
**A:** inactive

**Q:** // return assay outcome for Cc1ccc(-c2csc(NC(=O)CN3CCN(c4cc5c(cc4F)c(=O)c(C(=O)O)cn5C4CC4)CC3)n2)cc1
**A:** active

**Q:** Tell me the assay call for O=C(/C=C(/C=C/c1cccc2[nH]ccc12)OB(F)F)/C=C/c1cccc2[nH]ccc12 please.
**A:** active

**Q:** Called result for Cc1nc(-c2ccccc2)cc2c(O)c(C(=O)NN)[nH]c(=O)c12
**A:** inactive

**Q:** // outcome(item) with item = Cc1c(-c2nc3ccc(F)cc3c(=O)[nH]2)c2ccccc2n1C
**A:** inactive

**Q:** Given CC1=C(C(=O)OC(C)C)C(c2ccc3c(c2)OCO3)NC(=S)N1 (centres undefined) , state the outcome it received in this test.
**A:** inactive

**Q:** For Cn1ccc2c3c(ccc21)CC3=O , which call appears in the assay record?
**A:** inactive

**Q:** Hi, do you know how Cc1ccc(C2=Nc3c(N)ncnc3NC(c3ccc4c(c3)OCO4)C2)cc1 (centres undefined) came out in this test?
**A:** inactive

**Q:** Fill in: this test's call for N#C/C(=C\c1ccc2ccccc2c1)c1cc2ccccc2[nH]1 is ___
**A:** inactive

**Q:** I'd appreciate the recorded outcome for Clc1ccc(Nc2nnc(COc3ccccc3)c3ccccc23)cc1 from this test.
**A:** active

**Q:** Lab log entry: CCN1CCN(Cc2cn(CC(=O)Nc3ccc4c(ccn4Cc4ccccc4)c3)nn2)CC1 — outcome as called in the assay?
**A:** inactive

**Q:** Which outcome was assigned to O=C(O)CCCN1C(=O)/C(=C/C(Cl)=C/c2ccccc2)SC1=S in this test?
**A:** inactive

**Q:** Any idea what this test logged for COc1ccc(-c2nnc3n(C)c(=O)c4ccccc4n23)cc1N ?
**A:** inactive

**Q:** For CS(=O)(=O)Nc1cc(-c2ccc3ncnc(Nc4c(Cl)ccc5c4OCO5)c3c2)cnc1Cl , which call appears in the assay record?
**A:** active

**Q:** Any idea what this test logged for S=C1CCSC(=S)N1CCCN1C(=S)CCSC1=S ?
**A:** inactive

**Q:** Kindly provide the recorded test outcome for the following compound: Cc1ccc(-c2nc(/C=C3/C(=O)Nc4ccccc43)c3ccccn23)cc1
**A:** inactive

**Q:** Field: outcome | Entry: CCOC(=O)c1c(C)c2c(n1C)CSc1cc(C(=O)c3ccccc3)c(=O)[nH]c1-2
**A:** inactive

**Q:** Assay outcome for COc1ccc(-c2nc(/C=C3\SC(=NCc4ccccc4)NC3=O)c3ccccn23)cc1 : what was it?
**A:** active

**Q:** // param item: COc1ccc(OC)c(-c2c(C#N)c(-c3cccs3)nc3c2c(-c2ccccc2)nn3-c2ccccc2)c1 ; yields the recorded call
**A:** inactive

**Q:** Returns: the outcome recorded for O=c1oc2c(cnc3ccccc32)cc1-c1ccsc1 in this assay.
**A:** inactive

**Q:** For Fc1cccc(CNc2c3ccccc3nc3ccccc23)c1F , what call appears in the results of this test?
**A:** inactive

**Q:** Please indicate how the test categorized CC1=C(Nc2ccc(N3CCN(C)CC3)cc2)C(=O)c2cncnc2C1=O .
**A:** inactive

**Q:** Recorded test outcome, item CCSc1nc(NC)c2cc(-c3ccc(C(F)(F)F)cc3)ccc2n1
**A:** inactive

**Q:** What call does the record list for Cc1cc(N)c2cc(NC(=O)/C=C\c3ccccc3Cl)ccc2n1 ?
**A:** active

**Q:** Any idea what this test logged for COc1ccc(-c2ccc3cnc4sc(-c5ccc(OC)cc5)nc4c3n2)cc1 ?
**A:** inactive

**Q:** Test call for this compound, please: Cc1nn(-c2ccccc2)c(Oc2ccccn2)c1-c1nc2ccccc2s1
**A:** inactive

**Q:** # outcome recorded in this test, key = O=C(Cn1cc(CN2C(=O)c3ccccc3S2(=O)=O)nn1)Nc1nc2ccccc2s1
**A:** inactive

**Q:** Which outcome was entered for the compound CCOC(=O)CNP(=O)(OC[C@@H](Cc1ccccc1)NC(=O)c1cc2ccccc2s1)Oc1ccccc1 (some centres undefined) in this test?
**A:** inactive

**Q:** Tell me the assay call for C=CCn1cc(-c2nc3ccccc3s2)c2cc(-c3ccc4c5c(cccc35)C(=O)N(N)C4=O)ccc21 please.
**A:** inactive

**Q:** How did this test come out for COc1ccc(-c2nc(SCC(C)C)nc(N/N=C\c3ccc(F)cc3)c2C#N)cc1 ?
**A:** inactive

**Q:** Please let me know the test result on file for O=C(c1cc2ccccc2o1)c1nn(-c2ccccc2)/c(=N/N=Cc2cn(-c3ccccc3)nc2-c2cc3ccccc3oc2=O)s1 .
**A:** inactive

**Q:** Record request — test call for C=C(C)[C@@H]1CC[C@]2(C(=O)O)CC[C@]3(C)[C@H](CC[C@@H]4[C@@]5(C)C[C@@H](Cc6cn(CCO[C@@H]7O[C@H](COC(C)=O)[C@H](OC(C)=O)[C@H](OC(C)=O)[C@H]7OC(C)=O)nn6)[C@H](O)C(C)(C)[C@@H]5CC[C@]43C)[C@@H]12
**A:** inactive

**Q:** Could you please tell me the result logged for O=C(Nc1cccnc1Nc1ccc(F)cc1)c1cn(Cc2cccc(Oc3ccccc3)c2)nn1 in this assay?
**A:** inactive

**Q:** Tell me the recorded outcome of this test for N#C/C(=C\c1ccc(-c2ccc(Cl)cc2)o1)C(=O)Nc1ncc(Cc2ccc(Cl)cc2)s1 .
**A:** active

**Q:** For CCOc1nc(-c2ccccc2)cc2c(O)c(C(=O)NN)[nH]c(=O)c12 , which call appears in the assay record?
**A:** inactive

**Q:** Call for entry O=C(Cn1c(=O)sc2ccccc21)NNS(=O)(=O)c1ccccc1[N+](=O)[O-] :
**A:** inactive

**Q:** I would be grateful if you could indicate the recorded call for Cc1cnc(C(=O)NNc2nc3sc4c(c3c(=O)n2C)C(C)CCC4)cn1 (centres undefined) .
**A:** active

**Q:** Outcome logged for Cc1nc2sc(C(=O)Nc3ccccc3)c(N)c2cc1C(=O)c1ccccc1 in this assay:
**A:** inactive

**Q:** Would you mind telling me which call this test gave C=C(C)[C@@H]1CC[C@]2(C)[C@H](CC=C3[C@@H]4[C@H](C)[C@@H](C)CC[C@]4(CO)CC[C@]32C)[C@@]1(C)CCCN ?
**A:** active
